Measured pEC50, listed per entry.
# Tested on: CSM14.1 neuronal cells
# Experiment notes: Cell survival assay (thapsigargin-induced cell death, CELLTITER-GLO luminescence)
# Assay type: cell-based
# Settings: CSM14.1 cells, compound 2 hrs before about 15 μM thapsigargin, overnight (about 16 to 24 hrs), cell viability
pEC50: −log10 of the molar value.

Worked set:
Cc1ccc2cccc(/C=C/c3ccc(Cl)cc3)c2n1 [A4, (E)-8-(4-Chlorostyryl)-2-methylquinoline]    > 6.00
Cc1ccc2cccc(/C=C/c3cc(Br)cs3)c2n1    > 6.00
Cc1ccc2cccc(/C=C/c3ccc(Br)s3)c2n1    5.00 to 6.00
Cc1ccc2cccc(/C=C/c3cccc(C(F)(F)F)c3)c2n1    5.00 to 6.00
Cc1ccc2cccc(/C=C/c3ccc(OC(C)C)cc3)c2n1    > 6.00

The reported value for Cc1ccc2cccc(/C=C/c3cccc(F)c3)c2n1 [A6, (E)-8-(3-Fluorostyryl)-2-methylquinoline] in terms of pEC50 is 5.00 to 6.00

Numbers sourced from patent US10800766B2.
